Hello, the source for this data is paper PMC6039321, in case you need it.

- Tested on: P. yoelii (17XL)
- Assay info: microbe, parasite or virus in culture
- Format: cell-based, Plasmodium yoelii
- Condition context: read-out: OCA P. yoelii IC50; Table 4
Rule: measured IC50 below 1000 nM gets True; anything equal to or greater than 1000 nM gets False.

| Compound | Assay target | Answer label |
| --- | --- | --- |
| Clc1cccc(Nc2ccc3c(N4CCCCC4)ncnc3n2)c1 | P. yoelii (17XL) | False |
| Cc1cccc(-c2nn(-c3ccccc3)cc2C(=O)Nc2nnc(C)o2)c1 | P. yoelii (17XL) | False |
| c1ccc(CCNc2ncnc3c2[nH]c2ccccc23)cc1 | P. yoelii (17XL) | True |
| O=C(Nc1ccccc1O)c1ccc(S(=O)(=O)c2ccc(Cl)cc2)cc1 | P. yoelii (17XL) | False |
| COCCN(C)c1ccc(C(=O)Nc2ccccc2)cc1NS(=O)(=O)Cc1ccccc1.O=C(O)C(F)(F)F | P. yoelii (17XL) | True |

Prompt: I'd appreciate it if you could check whether Cc1cccc2nc(-c3ccc(-c4ccc(CN5CC(C)OC(C)C5)cc4)cc3)[nH]c12.O=C(O)C(F)(F)F (stereo not shown) has IC50 smaller than 1000 nM.
Response: False

Prompt: Item: `COc1ccc(NS(=O)(=O)c2cc(NC(=O)Cn3ccccc3=O)ccc2N2CCCCC2)cc1`
Response: True

* * *

- Assay target: cytbc1 (Plasmodium falciparum, UniProt Q02768)
- Sequence (Q02768 whole entry): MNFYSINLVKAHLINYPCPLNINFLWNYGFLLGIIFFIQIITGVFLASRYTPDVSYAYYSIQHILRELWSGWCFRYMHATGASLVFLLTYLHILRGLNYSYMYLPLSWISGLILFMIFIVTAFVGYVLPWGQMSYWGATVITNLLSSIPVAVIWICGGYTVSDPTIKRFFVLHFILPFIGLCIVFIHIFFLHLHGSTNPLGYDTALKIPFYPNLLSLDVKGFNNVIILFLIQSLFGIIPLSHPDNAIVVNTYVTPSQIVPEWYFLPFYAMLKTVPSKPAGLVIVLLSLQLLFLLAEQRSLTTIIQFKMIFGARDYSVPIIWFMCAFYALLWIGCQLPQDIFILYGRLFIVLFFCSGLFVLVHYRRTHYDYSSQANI
- Assay info: Enzymatic cytbc1 activity
- Assay type: biochemical, P. falciparum K1 strain
- Condition context: compound at 5 μM; P. falciparum mitochondria; atovaquone 100% inhibition control
Metric name: % Inhibition Cytbc1 biochemical assay, 5 μM

# count of solved cases: 3
| Compound | Meas value |
| --- | --- |
| Cc1cccc(-c2nn(-c3ccccc3)cc2C(=O)Nc2nnc(C)o2)c1 | 77.11 ± 12.20% |
| Cc1cccc2nc(-c3ccc(-c4ccc(CN5CC(C)OC(C)C5)cc4)cc3)[nH]c12.O=C(O)C(F)(F)F (stereo not shown) | 89.93 ± 9.67% |
| O=C(Nc1ccccc1O)c1ccc(S(=O)(=O)c2ccc(Cl)cc2)cc1 | 99.84 ± 2.22% |

Prompt: Query for cytbc1 (Plasmodium falciparum, UniProt Q02768): what % Inhibition Cytbc1 biochemical assay, 5 μM does the record show for `COc1ccc(NS(=O)(=O)c2cc(NC(=O)Cn3ccccc3=O)ccc2N2CCCCC2)cc1` ?
Response: 59.97 ± 8.70%

Prompt: Item: `c1ccc(CCNc2ncnc3c2[nH]c2ccccc23)cc1`
Response: 100.30 ± 2.14%

Prompt: Item: `Clc1cccc(Nc2ccc3c(N4CCCCC4)ncnc3n2)c1`
Response: 50.34 ± 6.78%

Prompt: Item: `COCCN(C)c1ccc(C(=O)Nc2ccccc2)cc1NS(=O)(=O)Cc1ccccc1.O=C(O)C(F)(F)F`
Response: 91.48 ± 7.57%

* * *

- Test system: P. yoelii (17XL)
- Assay info: microbe, parasite or virus in culture
- Assay type: cell-based, Plasmodium yoelii
- Condition context: Plasmodium yoelii, read-out: OCA P. yoelii IC50
Metric name: IC50 (nM)
Your answer is read as nM, so omit the unit and give the number.

Prompt: Please report the recorded IC50 for O=C1C(O)=C([C@H]2CC[C@H](c3ccc(Cl)cc3)CC2)C(=O)c2ccccc21 [Atovaquone, reference compound] .
Response: 5
